Hello, the source for this data is paper PMC5312529, in case you need it.

assay: LY2603618 plasma pharmacokinetics, noncompartmental analysis; assay type: in vivo, human; conditions: human, plasma, intravenous, 230 mg, 230 mg LY2603618; Cycle 1 Day 16; read-out: Cmax, Geometric Mean (CV%)
ASSAY_ENDPOINT: Cmax (ng/mL)

> print(dat)
                                   molecule  unit.abbrev  measured.number
1  Cc1cnc(NC(=O)Nc2cc(Br)c(C)cc2OC[C@@H]2CNCCO2)cn1 [LY2603618]        ng/mL             3410

* * *

test: LY2603618 plasma pharmacokinetics, noncompartmental analysis; type: in vivo, human; conditions: human, plasma, intravenous, 230 mg, 230 mg LY2603618; Cycle 1 Day 2; read-out: AUC(0–24), Geometric Mean (CV%)
ASSAY_ENDPOINT: AUC(0-t) (ng·h/mL)

> print(dat)
                                   molecule  unit.abbrev  measured.number
1  Cc1cnc(NC(=O)Nc2cc(Br)c(C)cc2OC[C@@H]2CNCCO2)cn1 [LY2603618]      ng·h/mL            23200

* * *

experiment: LY2603618 plasma pharmacokinetics, noncompartmental analysis; format: in vivo, human; details: human, plasma, intravenous, 230 mg, 230 mg LY2603618; Cycle 1 Day 2; read-out: AUC(0-∞), Geometric Mean (CV%)
ASSAY_ENDPOINT: AUC(0-inf)

> print(dat)
                                   compound  assay.endpoint         result
1  Cc1cnc(NC(=O)Nc2cc(Br)c(C)cc2OC[C@@H]2CNCCO2)cn1      AUC(0-inf)  29400 ng·h/mL

* * *

test: LY2603618 plasma pharmacokinetics, noncompartmental analysis; type: in vivo, human; settings: human, plasma, intravenous, 230 mg, 230 mg LY2603618; Cycle 1 Day 2; read-out: t1/2, Geometric Mean (CV%) (converted)
ASSAY_ENDPOINT: half-life (min)

> print(dat)
                                   molecule  unit.abbrev  measured.number
1  Cc1cnc(NC(=O)Nc2cc(Br)c(C)cc2OC[C@@H]2CNCCO2)cn1 [LY2603618]          min              580

* * *

assay: LY2603618 plasma pharmacokinetics, noncompartmental analysis; type: in vivo, human; settings: human, plasma, intravenous, 230 mg, 230 mg LY2603618; Cycle 1 Day 2; read-out: Vss, Geometric Mean (CV%)
ASSAY_ENDPOINT: Vd (L)

> print(dat)
                                   compound  assay.endpoint  unit.abbrev  measured.number
1  Cc1cnc(NC(=O)Nc2cc(Br)c(C)cc2OC[C@@H]2CNCCO2)cn1 [LY2603618]              Vd            L              104

* * *

assay: LY2603618 plasma pharmacokinetics, noncompartmental analysis; assay type: in vivo, human; details: human, plasma, intravenous; 230 mg LY2603618; Cycle 1 Day 2; read-out: tmax, Median (range)
ASSAY_ENDPOINT: Tmax (h)

> print(dat)
                                   compound  unit.abbrev  measured.number
1  Cc1cnc(NC(=O)Nc2cc(Br)c(C)cc2OC[C@@H]2CNCCO2)cn1            h                1
